target: UniProt:P53985; experiment: Inhibition of MCT1 uptake of known substrate 2-thiophene glyoxylate; conditions: probe substrate 2-thiophene glyoxylate 500 μM
READOUT: IC50 (mM)

- COMPOUND_STRING: "CC(=O)N[C@H](CC(C)C)C(=O)O"
  IC50 (mM): 11
- COMPOUND_STRING: "CC(=O)N[C@@H](CC(C)C)C(=O)O"
  IC50 (mM): 15

====

target: monocarboxylate transporter (MCT1) (Homo sapiens); assay: Inhibition of MCT1 uptake of known substrate 2-thiophene glyoxylate; settings: assuming competitive inhibition; read-out: affinity (Ki) for MCT1, Cheng-Prusoff equation
Sequence (P53985 whole entry): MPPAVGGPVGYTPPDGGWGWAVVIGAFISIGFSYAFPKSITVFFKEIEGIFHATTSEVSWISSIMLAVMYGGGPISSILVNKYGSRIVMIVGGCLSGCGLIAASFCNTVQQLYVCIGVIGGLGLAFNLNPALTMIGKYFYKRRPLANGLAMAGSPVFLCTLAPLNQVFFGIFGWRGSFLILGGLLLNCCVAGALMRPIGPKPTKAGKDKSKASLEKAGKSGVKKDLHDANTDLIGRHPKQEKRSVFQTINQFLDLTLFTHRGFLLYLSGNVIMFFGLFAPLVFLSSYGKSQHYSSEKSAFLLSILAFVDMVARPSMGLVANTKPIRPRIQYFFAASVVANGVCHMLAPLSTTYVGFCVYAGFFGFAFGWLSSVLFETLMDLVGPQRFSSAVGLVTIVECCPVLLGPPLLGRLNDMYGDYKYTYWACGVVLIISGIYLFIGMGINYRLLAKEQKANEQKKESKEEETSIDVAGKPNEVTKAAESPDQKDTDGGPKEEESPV
pKi: −log10 of the molar value.
READOUT: pKi

I = CC(=O)N[C@H](CC(C)C)C(=O)O [N-acetyl-D-leucine]
II = CC(=O)N[C@@H](CC(C)C)C(=O)O [N-acetyl-L-leucine]
For I and II , which recorded pKi is lower? Respond with the label that goes with your answer.
II
(II: 2.37, I: 2.80)
